- protocol.details: gradient 5% acetonitrile 3 min, to 50% in 2 min, to 85% in 15 min, held 3 min, 100 µL/min
- test.settings: column: Zorbax Extend-C18 2.1 x 50 mm; eluents: water / acetonitrile, 0.1% formic acid
Below, each entry is listed alongside its reported RP-LC retention time.
The figure you give is taken to be in s; do not add the unit.

Guide cases for RP-LC retention time, answers given:
CCc1cc(=O)n(CC(=O)Nc2ccc(OC)c(F)c2)c(N)n1 :: 788
CN(C)c1ccc(N2C=C(C(=O)N3CCCC3)S(=O)(=O)c3ccccc32)cc1 :: 811
O=S(=O)(NCCOc1ccc2c(c1)OCO2)c1ccc(F)c(Cl)c1 :: 903
COc1ccc2c(c1)C1(CCN(C(=O)c3ccccc3Br)C1)C(=O)N2 (centres undefined) :: 750

Problem: Which measured RP-LC retention time value corresponds to Cc1ccc(N2CC(c3nc(-c4ccc5c(c4)nnn5C)no3)CC2=O)cc1C (centres undefined) ?
Result: 880

Problem: Same thing, different compound: `CCc1nnc(-c2ccc3ccn(CC(=O)Nc4cc(OC)c(OC)c(OC)c4)c3c2)o1`
Result: 777

Problem: One more compound: CCc1nc(-c2ccc(OC3CCN(CCc4ccccc4)C3)cc2)no1 (centres undefined)
Result: 744

Problem: What about this compound? `O=C(Cn1nc2c3cc(-c4ccc(F)cc4)nn3ccn2c1=O)NC1CCCC1`
Result: 824

Problem: Can you check `CCCc1ccc(-c2csc(NC(=O)c3ccc(C)o3)n2)cc1` next?
Result: 1210
